Molecular target: CES2 (Homo sapiens, UniProt O00748)
Sequence (O00748 whole entry, looked up): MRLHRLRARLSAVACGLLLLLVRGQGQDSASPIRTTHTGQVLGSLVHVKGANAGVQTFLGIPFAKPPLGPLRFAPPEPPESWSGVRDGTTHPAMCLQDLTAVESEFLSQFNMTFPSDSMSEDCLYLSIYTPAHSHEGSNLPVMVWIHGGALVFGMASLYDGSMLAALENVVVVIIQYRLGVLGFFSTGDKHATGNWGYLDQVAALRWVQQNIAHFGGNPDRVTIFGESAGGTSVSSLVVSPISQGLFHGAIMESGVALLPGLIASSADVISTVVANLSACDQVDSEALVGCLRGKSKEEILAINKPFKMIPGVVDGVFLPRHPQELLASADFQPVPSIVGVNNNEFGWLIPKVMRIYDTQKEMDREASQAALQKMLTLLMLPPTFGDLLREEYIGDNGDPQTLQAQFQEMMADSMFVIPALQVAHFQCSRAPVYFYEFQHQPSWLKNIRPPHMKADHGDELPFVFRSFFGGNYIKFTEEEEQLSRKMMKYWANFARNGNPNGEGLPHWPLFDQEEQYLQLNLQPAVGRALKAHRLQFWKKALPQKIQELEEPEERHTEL
pKi: −log10 of the molar value.
quantity.measured: pKi

Lookup: Which value of pKi has been reported for O=C1C(=O)c2cccnc2-c2ncccc21 [5,6-dihydro-1=10-phenantroline-5,6-dione] in the records?
Found: < 4.00

// provenance: BindingDB's records for doi:10.1021/jm0706867
